VALUE KIND: melting point

In the examples that follow, each entry is paired with its recorded melting point.
[
  {
    "COMPOUND": "COc1ccccc1C1C(C#N)=C(C(C)C)Nc2n[nH]cc21 (centres undefined)",
    "melting point": "> 250 °C"
  },
  {
    "COMPOUND": "Cc1cc(NC(=O)Cc2ccsc2)nc(C)c1Br",
    "melting point": "211 °C"
  },
  {
    "COMPOUND": "CC(C)n1nc(-c2sc(C(N)=S)nc2-c2ccccc2)ccc1=O",
    "melting point": "> 250 °C"
  },
  {
    "COMPOUND": "Cn1nc(-c2ncc(Cl)cc2F)c(N)c1OC(F)F",
    "melting point": "92 to 94 °C"
  },
  {
    "COMPOUND": "c1ccc(C2NCCc3c2[nH]c2ccccc32)cc1 (centres undefined)",
    "melting point": "175 to 177 °C"
  },
  {
    "COMPOUND": "Cn1c([N+](=O)[O-])cnc1C=O",
    "melting point": "90 to 94 °C"
  },
  {
    "COMPOUND": "C=CC(=O)OCCCCCCOc1ccc(C=O)cc1",
    "melting point": "30 °C"
  },
  {
    "COMPOUND": "Cn1ncc(C(=O)N2CCCC2)c1C(=O)Nc1ccn2nc(-c3cccnc3)nc2c1",
    "melting point": "226 to 228 °C"
  }
]

Field: melting point. Fill in for each record below.
1. Cc1cc([N+](=O)[O-])c(C)c2c1OC(C)(C)C2=O
2. CCOC(=O)COc1ccccc1-c1cc(C#N)c(=O)[nH]c1C
3. Cc1ccc(Oc2ccccc2-n2cc(C(=O)O)nn2)c(O)c1
4. O=C(O)c1ccc(C2=CCC3CCC2C3)cc1 (centres undefined)
5. CCOc1ccc(-c2nc(-c3ccc(O)c(C(=O)O)n3)cs2)cc1OCC

Solution:
["124 to 126 °C", "188 to 190 °C", "168 to 169 °C", "180 to 181 °C", "161 to 162 °C"]

Field: melting point. Fill in for each record below.
1. CC(=O)c1ccc2ccc3ccccc3c2n1
2. COc1cc(C=O)cc(OC)c1OC1OC(CO)C(O)C(O)C1NC(C)=O (centres undefined)

Solution:
113 to 115 °C
186 to 189 °C
